Where do these numbers come from? They come from patent US8815909B2.

target: human Y4 receptor (Homo sapiens, UniProt P50391); construct: expressed in transfected cells; experiment: NPY4 cAMP HTRF Agonist Assay (inhibitory cAMP assay, Gi activation by Y4 agonism); type: cell-based; details: second TABLE 1, R2 is Phenyl-CF3; read-out: hY4 CAMP EC50
Sequence (P50391 whole entry): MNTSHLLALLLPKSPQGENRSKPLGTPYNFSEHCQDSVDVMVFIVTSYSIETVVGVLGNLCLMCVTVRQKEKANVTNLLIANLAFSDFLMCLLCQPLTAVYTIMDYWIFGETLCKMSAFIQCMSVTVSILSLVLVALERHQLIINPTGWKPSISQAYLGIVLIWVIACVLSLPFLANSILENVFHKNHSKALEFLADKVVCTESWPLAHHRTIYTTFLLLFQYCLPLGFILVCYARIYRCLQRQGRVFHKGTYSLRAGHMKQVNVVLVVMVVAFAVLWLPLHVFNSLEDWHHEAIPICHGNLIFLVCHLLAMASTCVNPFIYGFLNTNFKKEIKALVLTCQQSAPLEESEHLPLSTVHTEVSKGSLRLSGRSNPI
Reported Endpoint: EC50 (nM)

CCNC(=O)c1cccc(-c2ccnc(N[C@@H]3CCCC[C@H]3N[C@H]3CCCN(c4ccc(C(F)(F)F)cc4)C3)c2)c1 | 9
CN(C)c1cccc(-c2ccnc(N[C@@H]3CCCC[C@H]3N[C@H]3CCCN(c4ccc(C(F)(F)F)cc4)C3)c2)c1 | 239

I. FC(F)(F)Oc1cccc(-c2cnc(N[C@@H]3CCCC[C@H]3N[C@H]3CCCN(c4ccc(C(F)(F)F)cc4)C3)nc2)c1
II. OC1(c2cccc(-c3cnc(N[C@@H]4CCCC[C@H]4N[C@H]4CCCN(c5ccc(C(F)(F)F)cc5)C4)o3)c2)CC1
III. COC(=O)Nc1cccc(-c2ccnc(N[C@@H]3CCCC[C@H]3N[C@H]3CCCN(c4ccc(C(F)(F)F)cc4)C3)c2)c1
IV. OCCc1ccc(-c2ccnc(N[C@@H]3CCCC[C@H]3N[C@H]3CCCN(c4ccc(C(F)(F)F)cc4)C3)c2)cc1
## Input Please order the records by their reported EC50, lowest number first. # format: label list in the order the request specifies
## Output III, II, IV, I
(III: 3 nM, II: 36 nM, IV: 508 nM, I: 781 nM)

###

target: human Y4 receptor (Homo sapiens); construct: expressed in transfected cells; experiment: NPY4 cAMP HTRF Agonist Assay (inhibitory cAMP assay, Gi activation by Y4 agonism); assay type: cell-based; details: second TABLE 1, R2 is Phenyl-CF3; read-out: hY4 CAMP EC50
pEC50: −log10 of the molar value.
Reported Endpoint: pEC50

O=C(Nc1cccc(-c2ccnc(N[C@@H]3CCCC[C@H]3N[C@H]3CCCN(c4ccc(C(F)(F)F)cc4)C3)c2)c1)OCCF | 8.70
OCC#Cc1ccnc(N[C@@H]2CCCC[C@H]2N[C@H]2CCCN(c3ccc(C(F)(F)F)cc3)C2)c1 | 7.13
O=C1OCCN1c1cccc(-c2cnc(N[C@@H]3CCCC[C@H]3N[C@H]3CCCN(c4ccc(C(F)(F)F)cc4)C3)o2)c1 | 8.10
N#Cc1cnc(N[C@@H]2CCCC[C@H]2N[C@H]2CCCN(c3ccc(C(F)(F)F)cc3)C2)s1 | 7.15
Cn1cc(-c2ccnc(N[C@@H]3CCCC[C@H]3N[C@H]3CCCN(c4ccc(C(F)(F)F)cc4)C3)c2)cn1 | 5.98
FC(F)(F)c1ccc(N2CCC[C@H](N[C@@H]3CCCC[C@H]3Nc3ncc(Br)cn3)C2)cc1 | 6.59

1. CC(C)(O)c1cccc(-c2cnc(N[C@@H]3CCCC[C@H]3N[C@H]3CCCN(c4ccc(C(F)(F)F)cc4)C3)o2)c1
2. N#Cc1ccc(N[C@@H]2CCCC[C@H]2N[C@H]2CCCN(c3ccc(C(F)(F)F)cc3)C2)nc1
## Input Task for the reader: decide whether 1 or 2 has the larger pEC50. # respond with the chosen item's label
## Output 1

A. Nc1cccc(-c2cnc(N[C@@H]3CCCC[C@H]3N[C@H]3CCCN(c4ccc(C(F)(F)F)cc4)C3)o2)c1
B. CC(C)(C)OC(=O)Nc1cccc(-c2cnc(N[C@@H]3CCCC[C@H]3N[C@H]3CCCN(c4ccc(C(F)(F)F)cc4)C3)o2)c1
C. O=C(O)c1cccc(-c2cnc(N[C@@H]3CCCC[C@H]3N[C@H]3CCCN(c4ccc(C(F)(F)F)cc4)C3)o2)c1
D. O=C(NC1CC1)c1cccc(-c2cnc(N[C@@H]3CCCC[C@H]3N[C@H]3CCCN(c4ccc(C(F)(F)F)cc4)C3)o2)c1
E. CCNCc1cccc(-c2ccnc(N[C@@H]3CCCC[C@H]3N[C@H]3CCCN(c4ccc(C(F)(F)F)cc4)C3)c2)c1
## Input Sort these compounds on pEC50 so the largest reading comes first. Enter labels, ranked according to the request.
## Output D, A, B, E, C

###

biological target: human Y4 receptor (Homo sapiens); construct: expressed in transfected cells; assay: NPY4 cAMP HTRF Agonist Assay (inhibitory cAMP assay, Gi activation by Y4 agonism); assay type: cell-based; settings: TABLE 2, R2 is Phenyl-CN; read-out: hY4 CAMP EC50
pEC50: −log10 of the molar value.
Reported Endpoint: pEC50

CC(C)(O)c1cccc(-c2cnc(N[C@@H]3CCCC[C@H]3N[C@H]3CCCN(c4ccc(C#N)cc4)C3)o2)c1 | 7.41
CC(=O)c1cccc(-c2ccnc(N[C@@H]3CCCC[C@H]3N[C@H]3CCCN(c4ccc(C#N)cc4)C3)c2)c1 | 7.00
N#Cc1ccc(N2CCC[C@H](N[C@@H]3CCCC[C@H]3Nc3cc(-c4ccc5nccnc5c4)ccn3)C2)cc1 | 7.11

a. COc1ccc(-c2ccnc(N[C@@H]3CCCC[C@H]3N[C@H]3CCCN(c4ccc(C#N)cc4)C3)c2)cn1
b. N#Cc1ccc(N2CCC[C@H](N[C@@H]3CCCC[C@H]3Nc3cc(-c4ccccc4O)ccn3)C2)cc1
c. COC(=O)c1ccccc1-c1ccnc(N[C@@H]2CCCC[C@H]2N[C@H]2CCCN(c3ccc(C#N)cc3)C2)c1
## Input Order the records by pEC50, with each subsequent value no larger than the one before. Please list the labels in the order you were asked to rank them.
## Output a, b, c

I. Cc1ccc(-c2ccnc(N[C@@H]3CCCC[C@H]3N[C@H]3CCCN(c4ccc(C#N)cc4)C3)c2)cc1
II. C[C@H](O)c1cccc(-c2ccnc(N[C@@H]3CCCC[C@H]3N[C@H]3CCCN(c4ccc(C#N)cc4)C3)c2)c1
III. N#Cc1ccc(N2CCC[C@H](N[C@@H]3CCCC[C@H]3Nc3cc(-c4ccc5cn[nH]c5c4)ccn3)C2)cc1
## Input Exam item: list the entries in increasing order of pEC50. # list labels per requested ordering
## Output I, III, II
(I: 6.34, III: 6.67, II: 8.10)

1. CCOC(=O)Nc1cccc(-c2cnc(N[C@@H]3CCCC[C@H]3N[C@H]3CCCN(c4ccc(C#N)cc4)C3)o2)c1
2. N#Cc1ccc(N2CCC[C@H](N[C@@H]3CCCC[C@H]3Nc3cc(-c4cccc5[nH]ncc45)ccn3)C2)cc1
## Input Compare the recorded pEC50 of 1 and 2 ; state which is larger. Indicate your choice by writing its label.
## Output 1

1. N#Cc1ccc(N2CCC[C@H](N[C@@H]3CCCC[C@H]3Nc3cc(-n4cccc4)ccn3)C2)cc1
2. N#Cc1ccc(N2CCC[C@H](N[C@@H]3CCCC[C@H]3Nc3ncc4cc(F)ccc4n3)C2)cc1
## Input Of the two listed items, 1 and 2 , which carries the larger pEC50 figure? Select an item and report its label.
## Output 1
(1: 7.37, 2: 6.51)

###

target: human Y4 receptor (Homo sapiens); construct: expressed in transfected cells; assay: NPY4 cAMP HTRF Agonist Assay (inhibitory cAMP assay, Gi activation by Y4 agonism); type: cell-based; conditions: human Y4 stable CHO clonal cells, forskolin + IBMX; read-out: NPY4 cAMP HTRF Agonist Assay EC50
Reported Endpoint: EC50 (nM)

Example compounds with recorded EC50:
O=[N+]([O-])c1ccc(N2CCC[C@H](N[C@@H]3CCCC[C@H]3Nc3ncc(-c4ccc(OC(F)F)cc4)o3)C2)cc1 | 3
CCOC(=O)Nc1cccc(-c2cnc(N[C@@H]3CCCC[C@H]3N[C@H]3CCCN(c4cnc(C(F)(F)F)nc4)C3)o2)c1 | 4
N#Cc1cnc(N2CCC[C@H](N[C@@H]3CCCC[C@H]3Nc3ncc(-c4ccc(OC(F)(F)F)cc4)o3)C2)nc1 [Example 81, bis-trifluoroacetate] | 41
FC(F)(F)Oc1ccc(-c2cnc(N[C@@H]3CCCC[C@H]3N[C@H]3CCCN(c4ncc(C(F)(F)F)cn4)C3)o2)cc1 [Example 80, bis-trifluoroacetate] | 242
N#Cc1ccc(N2CCC[C@H](N[C@@H]3CCCC[C@H]3Nc3cc(-c4ccccc4)ccn3)C2)cc1 [Example 53, bis-trifluoroacetate] | 95
FC(F)(F)c1cnc(N2CCC[C@H](N[C@@H]3CCCC[C@H]3Nc3ncc(-c4ccccc4)o3)C2)nc1 [Example 79, bis-trifluoroacetate] | 83

A. N#Cc1ccc(N2CCC[C@H](N[C@@H]3CCCC[C@H]3Nc3nccc(-c4ccccc4)n3)C2)cc1F [Example 47, bis-trifluoroacetate]
B. COc1ccc(-c2cnc(N[C@@H]3CCCC[C@H]3N[C@H]3CCCN(c4ccc([N+](=O)[O-])cc4)C3)o2)c(F)c1
## Input Given A and given B , which shows the smaller recorded EC50? Output the label that corresponds to your choice.
## Output B

I. c1ccc(-c2cnc(N[C@@H]3CCCC[C@H]3N[C@H]3CCCN(c4ccc(-n5cncn5)cc4)C3)o2)cc1 [Example 90, bis-trifluoroacetate]
II. N#Cc1ccc(N2CCC[C@H](N[C@@H]3CCCC[C@H]3Nc3nccc(-c4ccccc4)n3)C2)cc1Cl [Example 40, bis-trifluoroacetate]
## Input Field: lower recorded EC50 (choose I or II ) Bench note: the answer is the label of the chosen record.
## Output II
(II: 29 nM, I: 132 nM)
